Just for reference, paper PMC11447181 is where these values come from.

# MEASUREMENT_TARGET: hSLC19A3-Lys44Glu (Homo sapiens, UniProt Q9BZV2, K44E)
# TEST: biochemical

# MOL_SMILES, UNIT_TAG, Kd
data = [
    ("Cc1ncc(C[n+]2csc(CCO)c2C)c(N)n1", "µM", 2.1),
]

---

# MEASUREMENT_TARGET: hSLC19A3 Q300A (Homo sapiens, UniProt Q9BZV2, Q300A)
# TEST: biochemical
VALUE_TYPE: Kd (µM)

# MOL_SMILES, VALUE_TYPE, RESULT
rows = [
    ("Cc1ncc(C[n+]2csc(CCO)c2C)c(N)n1", "Kd", 5.6),
]

---

# MEASUREMENT_TARGET: hSLC19A3-wt (Homo sapiens, UniProt Q9BZV2)
# Construct: full-length, wildtype human SLC19A3; made in house; host or cells: Expi293F
# Sequence (Q9BZV2 with tags, fused parts or gaps): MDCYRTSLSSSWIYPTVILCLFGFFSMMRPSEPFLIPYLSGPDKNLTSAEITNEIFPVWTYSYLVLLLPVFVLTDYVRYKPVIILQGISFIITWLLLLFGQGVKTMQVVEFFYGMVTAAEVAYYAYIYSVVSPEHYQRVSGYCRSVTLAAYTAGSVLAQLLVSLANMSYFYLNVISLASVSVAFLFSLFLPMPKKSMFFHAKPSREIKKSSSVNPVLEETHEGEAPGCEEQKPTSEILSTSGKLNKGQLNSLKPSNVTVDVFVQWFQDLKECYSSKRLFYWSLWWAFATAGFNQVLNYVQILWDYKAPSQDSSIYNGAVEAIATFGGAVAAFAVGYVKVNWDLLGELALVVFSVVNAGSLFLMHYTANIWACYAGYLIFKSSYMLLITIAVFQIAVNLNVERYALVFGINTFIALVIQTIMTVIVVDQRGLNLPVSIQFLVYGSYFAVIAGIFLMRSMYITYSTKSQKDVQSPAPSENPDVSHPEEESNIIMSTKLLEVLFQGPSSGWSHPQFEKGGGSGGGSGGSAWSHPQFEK
# TEST: nanoDSF thermal shift assay / apparent binding affinity, wildtype transporter
Catalogue of compounds with associated Kd
VALUE_TYPE: Kd (nM)

# COMPOUND, RESULT
measured = [
    ("Cc1ccc(NC(=O)c2ccc(CN3CCN(C)CC3)cc2)cc1Nc1nccc(-c2cccnc2)n1", 4400),
    ("CCN(CCO)CCCC(C)Nc1ccnc2cc(Cl)ccc12 (centres unmarked) [hydroxychloroquine]", 170),
]

---

# MEASUREMENT_TARGET: hSLC19A3 Y113A (Homo sapiens, UniProt Q9BZV2, Y113A)
# TEST: biochemical
VALUE_TYPE: Kd (µM)

# MOLECULE, RESULT
measured = [
    ("Cc1ncc(C[n+]2csc(CCO)c2C)c(N)n1 [thiamine]", 15.5),
]

---

# MEASUREMENT_TARGET: hSLC19A3-Glu32Lys (Homo sapiens, UniProt Q9BZV2, E32K)
# TEST: biochemical
# CONDITION_DETAILS: Kd,app for thiamine, E32K mutant; n = 3

# COMPOUND, Kd (µM)
rows = [
    ("Cc1ncc(C[n+]2csc(CCO)c2C)c(N)n1 [thiamine]", 145),
]

---

# MEASUREMENT_TARGET: hSLC19A3 W59A (Homo sapiens, UniProt Q9BZV2, W59A)
# Sequence (Q9BZV2 with tags, fused parts or gaps W59A): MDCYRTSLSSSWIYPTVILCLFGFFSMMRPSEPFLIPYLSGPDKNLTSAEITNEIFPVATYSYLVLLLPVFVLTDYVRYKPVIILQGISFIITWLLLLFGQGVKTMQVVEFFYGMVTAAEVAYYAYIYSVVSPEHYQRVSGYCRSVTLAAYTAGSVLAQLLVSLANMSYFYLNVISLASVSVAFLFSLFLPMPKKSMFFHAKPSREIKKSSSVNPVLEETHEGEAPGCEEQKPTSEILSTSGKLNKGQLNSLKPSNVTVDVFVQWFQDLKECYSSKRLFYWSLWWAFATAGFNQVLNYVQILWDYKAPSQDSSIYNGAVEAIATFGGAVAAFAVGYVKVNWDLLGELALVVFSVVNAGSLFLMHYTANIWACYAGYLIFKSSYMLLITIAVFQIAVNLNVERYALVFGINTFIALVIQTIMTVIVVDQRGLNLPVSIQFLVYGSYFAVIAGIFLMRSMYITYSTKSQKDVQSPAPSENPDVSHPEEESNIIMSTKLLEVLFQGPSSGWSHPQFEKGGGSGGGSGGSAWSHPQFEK
# TEST: biochemical
# Protocol: The thermal stability of the hSLC19A3 constructs and their binding affinities for small molecules were determined by nanoDSF, using a Prometheus NT.48 (NanoTemper Technologies). […] Thermal unfolding curves were recorded by measuring the ratio of the tryptophan-fluorescence at 350 nm (F350) and 330 nm (F330). The protein melting temperature (Tm) of a given sample was determined as the inflection point of the thermal unfolding curves, or the local maximum of its first derivative. […]

# MOL_SMILES, MEASUREMENT_TARGET, Kd
records = [
    ("Cc1ncc(C[n+]2csc(CCO)c2C)c(N)n1", "hSLC19A3 W59A (Homo sapiens, UniProt Q9BZV2, W59A)", "8.3 µM"),
]

---

# MEASUREMENT_TARGET: hSLC19A3-gf (N45Q, N166Q) (Homo sapiens, UniProt Q9BZV2, N166Q/N45Q)
# TEST: biochemical
VALUE_TYPE: Kd (µM)

# MOL_SMILES, RESULT
measured = [
    ("Cc1ncc(C[n+]2csc(CCO)c2C)c(N)n1", 10.4),
]
